- assayProcedure: HCV replicon assay (luciferase reporter, ET cell line)
- Format: cell-based
- experimentalParameters: Hepatitis C virus, HCV replicon luciferase activity in ET cells
# inhibition at 10 µM values compiled below
Entry rule: numbers only, all in %.

> print(dat)
                                   compound  scaleunit  experimentalvalue
1  CS(=O)(=O)NC1CN(C(=O)c2cn3cc(-c4ccoc4)cc(C(F)(F)F)c3n2)C1 [Compound 519]          %               84.7

Problem: Given O=C(NCCc1ccccc1)c1nc2c(C(F)(F)F)cc(-c3ccco3)cn2c1Cl [Compound 321] , state its recorded inhibition at 10 µM.
Result: 78.2

Problem: Look up inhibition at 10 µM for this compound: O=C(c1nc2c(C(F)(F)F)cc(-c3ccccc3)cn2c1Cl)N1CCC(c2cccc(F)c2)C1 (stereo not shown) [Compound 641]
Result: 80.9

Problem: Need inhibition at 10 µM of Nc1cccc(C2CCN(C(=O)c3nc4c(C(F)(F)F)cc(-c5ccoc5)cn4c3Cl)C2)c1 (stereo not shown) [Compound 462] , thanks.
Result: 86.5

Problem: I have this compound here, O=C(NCc1ccccc1)c1nc2c(C(F)(F)F)cc(-c3ccco3)cn2c1Cl [Compound 174] , and I need its recorded inhibition at 10 µM.
Result: 85.7

Problem: Fill blank: measured inhibition at 10 µM of the compound O=C(O)Cc1c(C(=O)N2CCC(c3ccc(F)cc3)C2)nc2c(C(F)(F)F)cc(-c3ccoc3)cn12 (stereo not shown) [Compound 236] is ____.
Result: 49

====

Here the recorded inhibition at 10 µM is given for each entry.
- assayProcedure: HCV replicon assay (luciferase reporter, ET cell line)
- Format: cell-based
- experimentalParameters: Hepatitis C virus, HCV replicon luciferase activity in ET cells
The figure you give is taken to be in %; do not add the unit.

Recorded results for 3 molecules are shown here.
> print(dat)
                                   molecule  experimentalvalue
1  [H]/N=C(/NCc1cccs1)c1nc2c(C(F)(F)F)cc(-c3ccoc3)cn2c1Cl               65.4
2  O=C(c1nc2c(C(F)(F)F)cc(-c3cn[nH]c3)cn2c1Br)N1CC=C(c2cccc(F)c2)C1               96.9
3  O=C(c1nc2c(C(F)(F)F)cc(-c3ccoc3)cn2c1Cl)N1CCN(c2ccc(F)c(F)c2)CC1               78.3

Problem: // lookup inhibition at 10 µM for O=C(c1nc2c(C(F)(F)F)cc(-c3cn[nH]c3)cn2c1Cl)N1CC=C(c2cccs2)C1
Result: 99.3

Problem: Consider the molecule shown here: O=C(NCc1cccs1)c1nc2c(C(F)(F)F)cc(-c3ccc(Cl)s3)cn2c1Cl What is its recorded inhibition at 10 µM?
Result: 96.8

Problem: Item O=C(c1nc2c(C(F)(F)F)cc(-c3cn[nH]c3)cn2c1Cl)N1CC=C(c2ccco2)C1 has what recorded inhibition at 10 µM?
Result: 98

Problem: I am curious: what inhibition at 10 µM value has been reported for O=C(c1nc2c(C(F)(F)F)cc(-c3ccoc3)cn2c1Cl)N1CC(NS(=O)(=O)c2cccs2)C1 ?
Result: 93.4

Problem: Query: inhibition at 10 µM; subject: O=C(c1nc2c(C(F)(F)F)cc(-c3ccoc3)cn2c1Cl)N1C=C(c2ccccc2F)CCC1
Result: 93.9

Problem: What value of inhibition at 10 µM has been recorded for this entry: N#Cc1cc(-c2cn[nH]c2)cn2c(Cl)c(C(=O)NCc3cccs3)nc12
Result: 80.8

====

Attribute: inhibition at 10 µM
- assayProcedure: HCV replicon assay (luciferase reporter, ET cell line)
- Assay type: cell-based
- experimentalParameters: Hepatitis C virus, HCV replicon luciferase activity in ET cells
# number only, unit % dropped from output

Problem: Which inhibition at 10 µM is listed for O=C(NCc1cccs1)c1nn2c(I)cc(-c3ccccc3)cc2c1Cl [Compound 121] ?
Result: 73.9

Problem: May I ask what inhibition at 10 µM has been recorded for O=C(c1nc2c(C(F)(F)F)cc(-c3ccoc3)cn2c1Cl)N1CC=C(c2c[nH]cn2)CC1 [Compound 558] ?
Result: 89.3

Problem: Reported inhibition at 10 µM, compound CCN(CC)C(=O)c1ccccc1C1=CCN(C(=O)c2nc3c(C(F)(F)F)cc(-c4ccoc4)cn3c2Cl)CC1 [Compound 560] : ____
Result: 80.9

Problem: Query: inhibition at 10 µM; subject: O=C(c1nc2c(C(F)(F)F)cc(-c3ccoc3)cn2c1Cl)N1CCC(Oc2ccccc2)C1 (centres unmarked) [Compound 593]
Result: 89.5

Problem: Reported inhibition at 10 µM, compound N#Cc1cccc(C2CCN(C(=O)c3nc4c(C(F)(F)F)cc(-c5ccoc5)cn4c3Cl)C2)c1 (centres unmarked) [Compound 450] : ____
Result: 82.5

Problem: Give the measured inhibition at 10 µM of O=C(NCc1cccs1)c1nc2c(C(F)(F)F)cc(-c3cnoc3)cn2c1Cl [Compound 288] .
Result: 85

Problem: So what does the record say about inhibition at 10 µM for O=C(c1nc2c(C(F)(F)F)cc(-c3ccoc3)cn2c1Cl)N1CC=C(c2cncs2)CC1 [Compound 568] ?
Result: 98.8

Problem: Given N#Cc1ccc(F)cc1C1=CCN(C(=O)c2nc3c(C(F)(F)F)cc(-c4ccoc4)cn3c2Cl)CC1 [Compound 569] , state its recorded inhibition at 10 µM.
Result: 85.3

====

- assayProcedure: HCV replicon assay (luciferase reporter, ET cell line)
- Format: cell-based
- experimentalParameters: Hepatitis C virus, HCV replicon luciferase activity in ET cells
Tag: T if measured inhibition at 10 µM is not below 80%, F if it is.

Example results:
> print(dat)
                                   molecule  label
1  O=C(c1nc2c(C(F)(F)F)cc(-c3ccoc3)cn2c1Cl)N1CCC(c2cccs2)CC1      T
2  O=C(c1nc2c(C(F)(F)F)cc(-c3ccoc3)cn2c1Cl)N1N=C(c2ccoc2)CC1c1cc(Br)ccc1O (stereo not drawn)      T

Problem: Form field: inhibition at 10 µM at least 80%? Entry: COC(=O)c1ccccc1C1CCN(C(=O)c2nc3c(C(F)(F)F)cc(-c4ccoc4)cn3c2Cl)C1 (stereo not drawn)
Result: F

Problem: Please indicate if the recorded inhibition at 10 µM for O=C(c1nc2c(C(F)(F)F)cc(-c3ccoc3)cn2c1Br)N1CCC(c2cccc(F)c2)C1 (stereo not drawn) meets or exceeds 80%.
Result: T

Problem: inhibition at 10 µM >= 80% for O=C(c1nc2c(C(F)(F)F)cc(-c3ccoc3)cn2c1Cl)N1CCCC(c2cccc(F)c2)C1 (stereo not drawn) ?
Result: T

Problem: Reported inhibition at 10 µM at or above 80%? O=C(c1nc2c(C(F)(F)F)cc(-c3ccoc3)cn2c1Cl)N1CC=C(c2ncc(CO)s2)CC1
Result: T

Problem: Is reported inhibition at 10 µM greater than or equal to 80% here: O=C(c1nc2c(C(F)(F)F)cc(-c3ccoc3)cn2c1Cl)N1CCC(c2ccccc2Cl)C1 (stereo not drawn)
Result: T

Problem: Quick check, inhibition at 10 µM >= 80%? O=C(c1nc2c(C(F)(F)F)cc(-c3ccoc3)cn2c1Cl)N1CCC(c2cccs2)C1 (stereo not drawn)
Result: T

Problem: Check if inhibition at 10 µM >= 80% (inclusive). Item: O=C(c1nc2c(C(F)(F)F)cc(-c3ccoc3)cn2c1Cl)N1CC(c2ccc(C(F)(F)F)cc2)C1
Result: F

Problem: Reported inhibition at 10 µM reaches at least 80% for O=C(NCC1CCCO1)c1nc2c(C(F)(F)F)cc(-c3ccco3)cn2c1Cl (stereo not drawn) ?
Result: T

Problem: # check: inhibition at 10 µM of O=C(c1nc2c(C(F)(F)F)cc(-c3ccoc3)cn2c1Cl)N1CCC(n2cnc3ccccc32)CC1 is greater than or equal to 80%
Result: F

Problem: Dear colleague, could you confirm whether O=C(c1nc2c(C(F)(F)F)cc(-c3ccoc3)cn2c1Cl)N1CC=C(c2ccccc2F)CC1 has inhibition at 10 µM at or above 80%?
Result: T

Problem: Check if inhibition at 10 µM >= 80% (inclusive). Item: O=C(NCc1ccc(N2CCOCC2)cc1)c1nc2c(C(F)(F)F)cc(-c3ccco3)cn2c1Cl
Result: F

Problem: Reported inhibition at 10 µM at or above 80%? CN(C)CCNC(=O)C(NC(=O)c1nc2c(C(F)(F)F)cc(-c3ccco3)cn2c1Cl)c1cccs1 (stereo not drawn)
Result: T

====

- assayProcedure: HCV replicon assay (luciferase reporter, ET cell line)
- Format: cell-based
- experimentalParameters: Hepatitis C virus, HCV replicon luciferase activity in ET cells
inhibition at 10 µM values by entry
Please reply with the bare figure in % and do not write the unit itself.

# example entries with known answers
> print(dat)
                                   compound  scaleunit  experimentalvalue
1  CNC(=O)Cc1c(C(=O)N2CCC(c3ccc(F)cc3)C2)nc2c(C(F)(F)F)cc(-c3ccoc3)cn12 (centres unmarked) [Compound 245]          %               63.9
2  CC(C)Cn1cc(-c2cc(C(F)(F)F)c3nc(C(=O)NCc4cccs4)c(Cl)n3c2)cn1 [Compound 649]          %               62.7

Problem: Name the recorded inhibition at 10 µM for O=C(NCc1cccs1)c1nc2c(C(F)(F)F)cc(-c3cn[nH]c3)cn2c1-c1cn[nH]c1 [Compound 485] .
Result: 58.9

Problem: I have this compound here, O=C(NCc1cccs1)c1nc2c(C(F)(F)F)cc(-c3cccc(F)c3)cn2c1CN1CCOCC1 [Compound 364] , and I need its recorded inhibition at 10 µM.
Result: 5.3

Problem: Can you share its inhibition at 10 µM? I mean this compound: O=C(NCCc1cccs1)c1nc2c(C(F)(F)F)cc(-c3ccco3)cn2c1Cl [Compound 185]
Result: 95.7

Problem: Report inhibition at 10 µM for O=C(c1nc2c(C(F)(F)F)cc(-c3cn[nH]c3)cn2c1Br)N1CC=C(c2cccs2)C1 [Compound 442] please.
Result: 99.5

Problem: Return reported inhibition at 10 µM; argument: O=C(c1nc2c(C(F)(F)F)cc(-c3cn[nH]c3)cn2c1Br)N1CCC(c2ccccc2F)C1 (centres unmarked) [Compound 449]
Result: 97.4

Problem: // returns reported inhibition at 10 µM for input O=C(c1nc2c(C(F)(F)F)cc(-c3cccc(F)c3)cn2c1Cl)N1CCC(c2ccc(F)cc2)C1 (centres unmarked) [Compound 234]
Result: 81.8
